tested on: SNB-19 CNS; assay: NCI tumour cell line growth inhibition, 48 h
Measured Quantity: TGI

input: Can you share its TGI? I mean this molecule: O=C(c1ccccc1)N1C(=S)N(c2ccccn2)C(=Nc2ccccc2)C1=Nc1ccccc1
output: > 96.2 µM

input: Which TGI value belongs to COC(=O)CC1c2ccccc2N2C(=O)Cc3c([nH]c4ccccc34)C12 (stereo unspecified) ?
output: > 100 µM

input: Entry OC1CSc2nc3ccccc3n2C1 (stereo unspecified) : reported TGI = ?
output: > 100 µM

input: Suppose we examine the molecule Oc1c(Cl)c(Cl)c(O)c2c1CCCC2 ; what TGI value has been reported?
output: 30.5 µM

input: Look up TGI for this molecule: Nc1c(C(=O)c2cccc(-c3cccnc3)c2)cnn1-c1ccc(F)cc1F
output: > 25 µM

input: Requested read-out: TGI. Entry: O=CN1CCN(C(=O)c2ccc(Cl)c(Cl)c2)C1=S
output: 31.7 µM

input: For the molecule Nc1ncnc2c1c(-c1ccc(Oc3ccccc3)cc1)nn2C[C@@H]1SSC[C@H]1O , what TGI is on record?
output: 13.3 µM

input: Given the entry CC1(C)N=C(C2CCCN2C(=O)OCc2ccccc2)OC1=O (stereo unspecified) , report its measured TGI.
output: > 100 µM

input: Data request, read-out TGI, for CCOc1ccc(NC(=O)C(=O)C(C(=O)c2ccc3ccccc3c2)C2OC(=O)c3ccccc32)cc1 (stereo unspecified)
output: > 100 µM

input: What value of TGI has been reported for the following molecule? CC(=O)Nc1cccc(N=NN(C)C)c1
output: > 100 µM

input: May I ask what TGI has been recorded for O=C1C(SCCO)=C(SCCO)C(=O)N1c1ccc(-c2ccccc2)cc1 ?
output: 43.1 µM

====

test system: SK-MEL-28 melanoma; test: NCI tumour cell line growth inhibition, 48 h
Measured Quantity: TGI

input: Reported TGI, compound CC[C@@]1(O)C(=O)OCc2c1cc1n(c2=O)Cc2c-1nc1ccccc1c2/C=N/NC(=O)c1ccc(N)cc1 : ____
output: > 100 µM

input: Recorded TGI for O=C1c2ccccc2N2Oc3ccccc3C12c1ccccc1 (stereo unspecified) , please?
output: > 100 µM

input: TGI lookup needed for CNC(=O)OCc1c2ccncc2c(C)c2c1[nH]c1ccc(OC)cc12 , thanks.
output: 2.04 µM

input: State the recorded TGI for this entry: CCN(CC)c1oc(N(CC)CC)c(C(=O)Nc2ccccn2)c(=O)c1C(C)=O
output: > 100 µM

input: Sample CNc1nc(C(N)=O)c(N)s1 — what was its TGI?
output: > 100 µM

input: Could you tell me which TGI is on file for COc1ccc(/C=C2\C[C@H]3[C@@H]4CCC5=CC(=O)CC[C@]5(C)[C@H]4CC[C@]3(C)C2=O)cc1OC ?
output: > 100 µM

input: Any idea what its TGI is? The compound is CCOC(=O)c1nc2ccc(C(F)(F)F)cc2nc1Oc1ccc(C(=O)OC)cc1
output: > 100 µM

input: What does the record list as TGI for O=C(N/N=C/c1cc(Br)cc(Br)c1[O-])c1ccccc1O.O=C(N/N=C/c1cc(Br)cc(Br)c1[O-])c1ccccc1O.[Co+2] ?
output: 14.5 µM

input: Returns the measured TGI for the input compound. Input: COC(=O)c1cc2ccccc2c2c3c(ccc12)OCO3
output: 328 µM

input: So what does the record say about TGI for C=C1C[C@H](O)[C@H](Br)C(C)(C)C12CCC(C)(Cl)C(Br)C2 (stereo partly specified) ?
output: 19 µM

input: I have this compound here, CN(C)CC1CCC2=C(C1=O)C(c1ccc(Cl)c(Cl)c1)C1=C(CCC(CN(C)C)C1=O)O2 (stereo unspecified) , and I need its recorded TGI.
output: 34.6 µM

input: Can you look up the measured TGI of O=c1cc(-c2cccnc2)[nH]c2cc3c(cc12)OCO3 for me?
output: > 100 µM

input: I have this compound here, O=C(N/N=C(/COc1ccccc1)N=Cc1cccnc1)c1ccncc1 , and I need its recorded TGI.
output: > 100 µM

input: Endpoint output: TGI of CCOC(=O)c1cccc(NC(=O)CI)c1 . Value?
output: 5.86 µM

input: Given the entry Cc1[nH]c2ccc(F)cc2c1-c1nc2c3cccnc3c3ncccc3c2[nH]1 , report its measured TGI.
output: > 100 µM

input: Requested field: TGI. Item: CC1(C)CC2CC(CC(C)(C)C2=O)C1=O
output: > 100 µM

input: Looking for the measured TGI of CCOC(=O)C(Cl)(NC(=O)OCc1ccccc1)C(F)(F)F (stereo unspecified) , can you help?
output: > 100 µM

input: Look up TGI for this compound: CCOP(=O)(OCC)OC1c2[nH]cc(C(=O)OCc3ccccc3)c2-c2cc(C(=O)OC)[nH]c2C1OC (stereo unspecified)
output: > 100 µM

input: For the compound COc1cc(OC)c2[nH]c3c(O)c(-c4c(C)cc5c([nH]c6c(OC)cc(OC)cc65)c4O)c(C)cc3c2c1 , what TGI is on record?
output: 19.5 µM

input: Which TGI reading was recorded for the compound O=C(OCCNC(=O)N1CC1)OCCNC(=O)N1CC1 ?
output: > 10 µM

input: Fill blank: measured TGI of the compound C#CCNCCN1C(=O)c2ccc3c4c(ccc(c24)C1=O)C(=O)N(CCNCC#C)C3=O is ____.
output: 27.6 µM

====

test system: PC-3 prostate; assay: NCI tumour cell line growth inhibition, 48 h; in the data active = GI50 below about 0.43 µM; inactive = the rest
Give one outcome, nothing more. List: true (active), false (inactive)

input: Give the logged outcome of this assay for the following molecule: O=[N+]([O-])c1ccc(N=Nc2ccc(O)c3ccccc23)cc1
output: false

input: Identify the outcome logged in this assay for the molecule shown: Cc1ccc(C(=O)NC2CCC2)cc1-c1ccc(C(=O)NCC2CC2)cc1
output: false

input: Any idea what this test logged for COc1cc([N+](=O)[O-])c(OC)cc1-c1nc2sccn2c1/C=N/N=C(N)N ?
output: false

input: # outcome recorded in this test, key = Cc1nn(C)c(COc2ccc(N3CCN(S(=O)(=O)N(C)C)CC3)cc2)c1-c1cccc2c(CCCOc3cccc4ccccc34)c(C(=O)O)n(CCN3CCOCC3)c12
output: false

input: What did the test return for Cc1nn(-c2ccc(Cl)cc2)c2nc3c(nc12)C(=O)C(=O)c1ccccc1-3 ?
output: false

input: Hi, sorry to bother you, what did the test record for CN(C)c1ccc(C(=NO)c2ccc(N(C)C)cc2)cc1 ?
output: false

input: Per the assay record, what outcome was assigned to Cn1cccc1-c1cc(-c2ccc(Br)cc2)[nH]c(=O)c1C#N ?
output: false

input: Returns: the outcome recorded for CCOC(=O)c1cc2c(n1Cc1cc(OC)c(OC)c(OC)c1)-c1oncc1CCC2 in this assay.
output: true

input: Look up the recorded call for COC(=O)Nc1nc2ccc(Oc3cccc(NC(=O)Nc4cc(C(F)(F)F)ccc4F)c3)cc2[nH]1 in this test.
output: false

input: I'd appreciate the recorded outcome for COc1ccccc1CNCCCN1C(=O)c2ccc3c4c(ccc(c24)C1=O)C(=O)N(CCCN)C3=O from this test.
output: false

input: Can you look up the reported call for COc1ccc(C2=CC(c3ccc(OC)cc3Br)N3C=CSC3=N2)cc1 (configuration not stated) for me?
output: false

input: Recorded call for Cc1cn2c(/C=C3/C(=O)Nc4ccc(O)cc43)c(C)nc2s1 ?
output: false

input: Please share the test call associated with O1[As]2O[As]3O[As]1O[As](O2)O3 .
output: false

input: Check the results log: what was the call for Cc1cnc2[nH]c(-c3ccc4ccccc4c3)cc(=O)c2c1 ?
output: true

input: GET /call?item= CCOC(=O)C1CCCCN1C(=O)c1ccc(Nc2cnc3cc(C(F)(F)F)ccc3n2)cc1 (configuration not stated) returns the recorded outcome of this test.
output: false

input: Which result was noted for this molecule in the test: O=S(=O)(c1cccc2c(I)cccc12)N1CCCNCC1
output: false

input: Which outcome was assigned to C=C1CC[C@@H]2[C@](C)(COC(C)=O)[C@H](OC(C)=O)CC[C@@]2(C)[C@@H]1CC(Nc1ccc(S(=O)(=O)Nc2ccc(Cl)nn2)cc1)C1=CCOC1=O (some centres not stated) in this test?
output: false

====

test system: SK-MEL-28 melanoma; test: NCI tumour cell line growth inhibition, 48 h
Consider the following molecules; for each one, report its TGI.

input: Return reported TGI; argument: NC(=O)NC12CC3CC(CC(F)(C3)C1)C2
output: > 100 µM

input: Item under review: CC1=C(C(=O)N(C)c2ccc(Cl)c(C(=O)OC(C)C)c2)SCCO1 . Reported TGI?
output: > 100 µM

input: Recorded TGI for Cc1ccc(Nc2nc3c(=O)n(C)c(=O)n(C)c3nc2Nc2ccc(C)cc2)cc1 , please?
output: 30.8 µM

input: Reported TGI, molecule O=C1CC(NCc2ccccc2)c2c(Cl)sc(Cl)c21 (centres undefined) : ____
output: 76.7 µM
